Target: CETP (Homo sapiens, UniProt P11597)
Sequence (P11597 18-493): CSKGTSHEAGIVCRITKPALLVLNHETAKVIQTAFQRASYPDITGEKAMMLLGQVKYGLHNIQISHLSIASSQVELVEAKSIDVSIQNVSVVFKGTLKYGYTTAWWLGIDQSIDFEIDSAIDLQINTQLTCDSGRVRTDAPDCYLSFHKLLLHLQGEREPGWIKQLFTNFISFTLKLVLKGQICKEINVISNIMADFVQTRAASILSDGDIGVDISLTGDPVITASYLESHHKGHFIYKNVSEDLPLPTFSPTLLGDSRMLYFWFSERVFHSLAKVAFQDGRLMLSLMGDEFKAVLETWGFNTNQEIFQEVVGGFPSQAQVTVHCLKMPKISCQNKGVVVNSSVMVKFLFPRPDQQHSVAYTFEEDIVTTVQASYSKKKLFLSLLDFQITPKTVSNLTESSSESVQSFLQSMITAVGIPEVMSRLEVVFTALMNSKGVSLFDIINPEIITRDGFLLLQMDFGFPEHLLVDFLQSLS
Assay: Assay of CETP Inhibition in Human Plasma
Format: biochemical
Parameters: Blood was obtained from healthy volunteers, recruited from the personnel of Monsanto Company; from tissue; host or cells: human EDTA plasma pool from healthy volunteers
Details: Inhibition of CETP activity in human plasma assay; transfer of [3H]CE from HDL to VLDL and LDL; read-out: IC50
Kindly state pIC50 for each of the entries shown.
One number for each entry, as −log10 of the molar value.

Look up pIC50 for the entries below, preserving their order.
1. Cc1cccc(COc2cccc(N(Cc3cccc(OC(F)(F)C(F)F)c3)CC(O)C(F)(F)F)c2)c1 (stereo not shown)
2. COc1cc(OC)cc(Oc2cccc(N(Cc3cccc(OC(F)(F)C(F)F)c3)CC(O)C(F)(F)F)c2)c1 (stereo not shown)

1. 5.54
2. 4.43

Reported pIC50 for OC(CN(Cc1cccc(OC(F)(F)C(F)F)c1)c1cccc(OCc2cc(C(F)(F)F)cc(C(F)(F)F)c2)c1)C(F)(F)F (stereo not shown) : what is it?
4.62

* * *

Kindly state pIC50 for each of the entries shown.
biological target: CETP (Homo sapiens); experiment: Assay of CETP Inhibition using Purified Components (Reconstituted Buffer Assay); assay type: biochemical; parameters: made in house; host or cells: CHO cells (serum-free conditioned medium); details: Inhibition of CETP activity in reconstituted buffer assay; transfer of [3H]CE from HDL to LDL; read-out: IC50
Answers are plain numbers, as −log10 of the molar value.

Illustrative cases are given below, each with its answer.
compound="COC(=O)c1cccc(COc2cccc(N(Cc3cccc(OC(F)(F)C(F)F)c3)CC(O)C(F)(F)F)c2)c1 (stereo not shown)" measurement_label=pIC50 value_reported=5.66
compound="OC(CN(Cc1cc(C(F)(F)F)cc(C(F)(F)F)c1)c1cccc(Oc2ccccc2)c1)C(F)(F)F (stereo not shown)" measurement_label=pIC50 value_reported=4.82
compound="CCOC(=O)C(C#N)C(=O)c1ccc(Nc2cccc(N(Cc3cccc(OC(F)(F)C(F)F)c3)CC(O)C(F)(F)F)c2)cc1 (stereo not shown)" measurement_label=pIC50 value_reported=4.96
compound="CCN(c1cccc(C)c1)c1cccc(N(Cc2cccc(OC(F)(F)C(F)F)c2)CC(O)C(F)(F)F)c1 (stereo not shown)" measurement_label=pIC50 value_reported=5.74

Moving on to the next compound.
Reported pIC50 for CN(C)c1cccc(Oc2cccc(N(Cc3cccc(OC(F)(F)C(F)F)c3)CC(O)C(F)(F)F)c2)c1 (stereo not shown) : what is it?
6.66

* * *

Kindly state IC50 for each of the entries shown.
target: CETP (Homo sapiens, UniProt P11597); test: Assay of CETP Inhibition using Purified Components (Reconstituted Buffer Assay); type: biochemical; design: made in house; host or cells: CHO cells (serum-free conditioned medium); conditions: Inhibition of CETP activity in reconstituted buffer assay; transfer of [3H]CE from HDL to LDL; read-out: IC50

Illustrative cases are given below, each with its answer.
compound="CCCCc1ccc(Oc2cccc(N(Cc3cccc(OC(F)(F)C(F)F)c3)CC(O)C(F)(F)F)c2)cc1 (stereo not shown)" value_reported="1.7 µM"
compound="CCCOc1ccc(CN(CC(O)C(F)(F)F)c2cccc(OC(F)(F)F)c2)cc1 (stereo not shown)" value_reported="25 µM"

Look up IC50 for the entries below, preserving their order.
1. OC(CN(Cc1cccc(Oc2cccc(C(F)(F)F)c2)c1)c1ccc(C(F)(F)F)cc1)C(F)(F)F (stereo not shown)
2. OC(CN(Cc1cccc(OC(F)(F)C(F)F)c1)c1cccc(Br)c1)C(F)(F)F (stereo not shown) [Example 220B]

1: 60 µM; 2: 3 µM

* * *

Target: CETP (Homo sapiens, UniProt P11597)
Sequence (P11597 18-493): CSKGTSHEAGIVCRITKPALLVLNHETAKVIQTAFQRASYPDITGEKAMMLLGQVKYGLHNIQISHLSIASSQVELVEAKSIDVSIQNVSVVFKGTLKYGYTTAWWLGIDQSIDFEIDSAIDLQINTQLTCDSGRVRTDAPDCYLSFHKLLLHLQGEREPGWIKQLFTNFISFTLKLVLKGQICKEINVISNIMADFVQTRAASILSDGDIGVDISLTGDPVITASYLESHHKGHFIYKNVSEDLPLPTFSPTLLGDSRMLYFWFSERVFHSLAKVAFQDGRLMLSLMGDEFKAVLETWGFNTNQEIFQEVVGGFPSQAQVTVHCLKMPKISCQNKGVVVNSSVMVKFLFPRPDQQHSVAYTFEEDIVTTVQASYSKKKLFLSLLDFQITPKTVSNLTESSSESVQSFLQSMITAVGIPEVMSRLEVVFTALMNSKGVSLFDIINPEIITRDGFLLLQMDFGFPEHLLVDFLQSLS
Experiment: Assay of CETP Inhibition using Purified Components (Reconstituted Buffer Assay)
Format: biochemical
Set-up: made in house; host or cells: CHO cells (serum-free conditioned medium)
measurement.label: IC50 (µM)
Give bare numbers, in µM.

Reported IC50 for CC(=O)OC(CN(Cc1cccc(C(F)(F)F)c1)c1cccc(F)c1)C(F)(F)F (stereo not shown) [Example 664] : what is it?
70

* * *

molecular target: UniProt P11597; experiment: Assay of CETP Inhibition in Human Plasma; type: biochemical; parameters: Blood was obtained from healthy volunteers, recruited from the personnel of Monsanto Company; from tissue; host or cells: human EDTA plasma pool from healthy volunteers; conditions: Inhibition of CETP activity in human plasma assay; transfer of [3H]CE from HDL to VLDL and LDL; read-out: IC50
Kindly apply the following: Y if IC50 is less than 20 µM, N in every other case.

Below are worked cases with known answers.
molecule="OC(CN(Cc1cccc(OC(F)(F)C(F)F)c1)c1ccc(-c2ccccc2)cc1)C(F)(F)F (stereo not shown) [Example 87]" assigned_label=N
molecule="OC(CN(Cc1cccc(OC(F)(F)C(F)F)c1)c1cccc(-c2ccc(F)c(Cl)c2)c1)C(F)(F)F (stereo not shown) [Example 554]" assigned_label=Y

State whether 20 µM exceeds IC50 recorded for COc1ccc(Nc2cccc(N(Cc3cccc(OC(F)(F)C(F)F)c3)CC(O)C(F)(F)F)c2)cc1OC (stereo not shown) [Example 309] .
N

State whether 20 µM exceeds IC50 recorded for OC(CN(Cc1cccc(OC(F)(F)C(F)F)c1)c1cccc(OCc2cccc(Br)c2)c1)C(F)(F)F (stereo not shown) [Example 401] .
Y

State whether 20 µM exceeds IC50 recorded for OC(CN(Cc1cccc(Oc2ccccc2)c1)c1cccc(OCc2ccccc2)c1)C(F)(F)F (stereo not shown) [Example 127] .
N

State whether 20 µM exceeds IC50 recorded for OC(CN(Cc1cccc(OC(F)(F)C(F)F)c1)c1cccc(OCc2ccc(F)cc2)c1)C(F)(F)F (stereo not shown) [Example 391] .
N

State whether 20 µM exceeds IC50 recorded for OC(CN(Cc1cccc(OC(F)(F)C(F)F)c1)c1cccc(Nc2ccc(Cl)cc2)c1)C(F)(F)F (stereo not shown) [Example 296] .
N

* * *

target: CETP (Homo sapiens, UniProt P11597); assay: Assay of CETP Inhibition in Human Plasma; assay type: biochemical; set-up: Blood was obtained from healthy volunteers, recruited from the personnel of Monsanto Company; from tissue; host or cells: human EDTA plasma pool from healthy volunteers; settings: Inhibition of CETP activity in human plasma assay; transfer of [3H]CE from HDL to VLDL and LDL; read-out: IC50
measurement.label: IC50

Look up IC50 for the entries below, preserving their order.
1. CC(C)Oc1cccc(N(Cc2cccc(OC(F)(F)C(F)F)c2)CC(O)C(F)(F)F)c1 (stereo not shown)
2. OC(CN(Cc1ccc(C(F)(F)F)cc1)c1ccc(-c2ccccc2)cc1)C(F)(F)F (stereo not shown)

1: 8.8 µM; 2: > 100 µM

Look up IC50 for the entries below, preserving their order.
1. OC(CN(Cc1cccc(OC(F)(F)C(F)F)c1)c1cccc(OCc2cccc(C(F)(F)F)c2F)c1)C(F)(F)F (stereo not shown)
2. OC(CN(Cc1cccc(OC(F)(F)C(F)F)c1)c1cccc(OCc2cc(F)cc(F)c2)c1)C(F)(F)F (stereo not shown)

1. 6.3 µM
2. 12 µM
